Where these numbers come from: paper PMC12669040

assay: Colorimetric alkylation rate constant assay with TNB^2− as non-specific thiol; format: physicochemical; settings: Replicate 2, 723 sec, [B]0=250; in µM
OBSERVABLE: remaining [B]

[[record]]
molecule = "O=C(CCl)Nc1ccc(F)cc1"
result_number = 244.493

[[record]]
molecule = "C=CS(=O)(=O)Nc1cc2cc(C(=O)CCC(=O)O)sc2cc1OC [Compound E1]"
result_number = 247.165

[[record]]
molecule = "O=C(CCl)N1CCOCC1"
result_number = 241.425

[[record]]
molecule = "O=C(CCl)Nc1ccccc1"
result_number = 245.048

[[record]]
molecule = "O=C(CCl)Nc1ccccc1C(=O)O"
result_number = 245.533

[[record]]
molecule = "COc1cc2sc(C(=O)CCC(=O)O)cc2cc1NC(=O)CCl [Compound E2]"
result_number = 243.24


###

experiment: Colorimetric alkylation rate constant assay with TNB^2− as non-specific thiol; type: physicochemical; settings: Replicate 2, 1626 sec, [B]0=250; in µM
OBSERVABLE: remaining [B]

[[record]]
molecule = "O=C(CCl)N1CCOCC1"
result_number = 238.023

[[record]]
molecule = "COc1cc2sc(C(=O)CCC(=O)O)cc2cc1NC(=O)CCl [Compound E2]"
result_number = 241.929

[[record]]
molecule = "C=CS(=O)(=O)Nc1cc2cc(C(=O)CCC(=O)O)sc2cc1OC [Compound E1]"
result_number = 245.262

[[record]]
molecule = "O=C(CCl)Nc1ccc(F)cc1"
result_number = 242.931

[[record]]
molecule = "O=C(CCl)Nc1ccccc1"
result_number = 243.435

[[record]]
molecule = "O=C(CCl)Nc1ccccc1C(=O)O"
result_number = 245.067


###

test: LC–MS/MS analysis of in situ SC2S formation (tissue distribution); assay type: in vivo, BALB/c mice; settings: BALB/c, mouse, plasma, 2h; read-out: Blood Mean concentration
OBSERVABLE: concentration at 2 h (ng/mL)
Report as a plain number; the unit ng/mL is understood.

Exam item: Give the reported value of concentration at 2 h for this record: `COc1cc2sc(C(=O)CCC(=O)O)cc2cc1SCCSc1cc2cc(C(=O)CCC(=O)O)sc2cc1OC`
Marked response: 3.03

###

Reported fold induction at 1.11111 µM values for the following molecules.
test system: THP-1 Lucia ISG cells (interferon pathway); experiment: Potency test of purified dimers on THP-1 Lucia ISG reporter cells; type: cell-based, human; settings: Homo sapiens, THP1-Lucia ISG, 24 h, Concentration 1111.11 nM; three replicates; read-out: Processed reporter response per replicate (reading relative to DMSO)
// no unit, no text: just the number

See these solved cases before continuing.
[[record]]
molecule = "COc1cc2sc(C(=O)CCC(=O)O)cc2cc1SCSc1cc2cc(C(=O)CCC(=O)O)sc2cc1OC [Compound D5]"
result_number = 196

[[record]]
molecule = "COc1cc2sc(C(=O)CCC(=O)O)cc2cc1CSc1cc2cc(C(=O)CCC(=O)O)sc2cc1OC [Compound D2]"
result_number = 173

[[record]]
molecule = "COc1cc2sc(C(=O)CCC(=O)O)cc2cc1CSCc1cc2cc(C(=O)CCC(=O)O)sc2cc1OC [Compound D7]"
result_number = 204

[[record]]
molecule = "COc1cc2sc(C(=O)CCC(=O)O)cc2cc1SCCCSc1cc2cc(C(=O)CCC(=O)O)sc2cc1OC [Compound D6]"
result_number = 0.956

[[record]]
molecule = "COc1cc2sc(C(=O)CCC(=O)O)cc2cc1CCCSc1cc2cc(C(=O)CCC(=O)O)sc2cc1OC [Compound D4]"
result_number = 1.6


Pending molecule:
Exam item: Entry COc1cc2sc(C(=O)CCC(=O)O)cc2cc1Sc1cc2cc(C(=O)CCC(=O)O)sc2cc1OC [Compound D1] needs its fold induction at 1.11111 µM filled in; supply it.
Marked response: 172
